system: MCF7; assay: Cytotoxicity against human MCF7 cells; assay type: functional, cell-based; conditions: Homo sapiens, MCF7; read-out: IC50
Recorded IC50 by entry
Please state the number and follow it with the unit.

Field: example entries. Status: answers known.
C[C@@]12C3=CC(=O)OCC3=C[C@H]3OC(=O)[C@](C)([C@H]31)[C@@H](O)[C@H]1O[C@H]12 : 69 µM
C[C@@]12C3=CC(=O)OCC3=C[C@H]3OC(=O)[C@](C)([C@H]31)[C@H]1O[C@H]1[C@H]2O [ASPEROLIDE B] : 63 µM
C[C@@]12C[C@@H](O)C[C@]3(C)C4=CC(=O)OCC4=C[C@@H](OC1=O)[C@@H]23 : 56 µM
COc1cccc2c1C(=O)c1c(O)c3c(c(O)c1C2=O)C[C@@](O)(C(=O)CO)C[C@@H]3O[C@H]1C[C@H](N)[C@H](O)[C@H](C)O1 : 7 µM

Now for the compound whose IC50 we want.
So what does the record say about IC50 for C[C@]12C(=O)O[C@@H]3C=C4COC(=O)C=C4[C@@](C)(C=C[C@@H]1O)[C@@H]32 ? 38 µM

* * *

test system: NCI-H460; assay: Cytotoxicity against human NCI-H460 cells; assay type: functional, cell-based; details: Homo sapiens, NCI-H460; read-out: IC50
# Met = IC50 below 40 µM (exclusive); Not met = IC50 at/above 40 µM

C[C@]12C(=O)O[C@@H]3C=C4COC(=O)C=C4[C@@](C)(C=C[C@@H]1O)[C@@H]32 : Not met
O=c1[nH]cc(F)c(=O)[nH]1 [FLUOROURACIL] : Met
C[C@@]12C[C@@H](O)C[C@]3(C)C4=CC(=O)OCC4=C[C@@H](OC1=O)[C@@H]23 [WENTILACTONE B] : Met
C[C@@]12C3=CC(=O)OCC3=C[C@H]3OC(=O)[C@](C)([C@H]31)[C@@H](O)[C@H]1O[C@H]12 [WENTILACTONE A] : Met
C[C@@]12C3=CC(=O)OCC3=C[C@H]3OC(=O)[C@](C)([C@H]31)[C@H]1O[C@H]1[C@H]2O [ASPEROLIDE B] : Not met

Hi there! Is IC50 for C[C@]12C3=CC(=O)OCC3=C[C@H]3OC(=O)[C@@](C)(C=C[C@H]1O)[C@H]32 [ASPEROLIDE A] below 40 µM, do you know? Not met

Sourced from ChEMBL document CHEMBL2010682
